# assay_protocol: Pharmacokinetic study in mice (drug remaining in eye, LC-MS)
# Format: in vivo, C57BL/6N mice
# conditions_used: both sexes, C57BL/6N, mouse, whole eye (globe), other: intravitreous injection, 1 µg; read-out: overall half-life in mouse eyes (converted)
property_measured: half-life

Query :: What measured half-life goes with CCN(CC)CCNC(=O)c1c(C)[nH]c(/C=C2\C(=O)Nc3ccc(F)cc32)c1C [sunitinib, reference compound] ?
Result :: ~50.4 h
